The reported measurements were obtained from patent US20250345317A1.

- System: PANC-1
- experiment.notes: Growth inhibition, SRB assay, PANC-1
- Type: cell-based
- assay.context: Homo sapiens, PANC-1, wild-type BRCA1/2, 48 hours
- Description: […] In an embodiment, IC50 values were determined by Sulforhodamine B (SRB) or MTS [3-(4,5-dimethylthiazol-2-yl)-5-(3-carboxymethoxyphenyl)-2-(4-sulfophenyl)-2H-tetrazolium] assay in immortalized and PD-OVCA cells, respectively. […]
property.label: IC50 (µM)
Provide only the numeric value, understood in µM.

QUERY: Report measured IC50; entry is `CC[C@H]1CN(C)C2Cc3c([nH]c4ccccc34)/C(=N/Nc3ccc(Br)cn3)C[C@@H]1[C@@H]2C(=O)OC`
RESULT: 4.4
